Every entry's value here was drawn from the supplement of paper PMC12042874.

assay name: amyloid nucleation score (Sup35N fusion, yeast selection) (log enrichment); library NNK3; higher = more nucleation; inactive = no reads after selection;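 note: zero at mode of non-aggregating sequences after 7 days selection at 30°C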
experimental readout: amyloid nucleation score

Some solved cases for reference:
substance=GKMLRWMKH result=inactive
substance=YTLPGIQAGFWARCVSHTRL result=inactive
substance=LSGLRNAVERVVAGFIHGRV result=inactive
substance=FGRLTV result=inactive

Dear colleague, could you send me amyloid nucleation score for each of the items below? Thanks.
1. VVCGANHLRIFFVNRVMWD
2. YLDRKVCSGNALRYLK
3. YIRIDTGLLCVCGLSQEGVV
4. SYRPMHTDGLSLYSRQNLSY

Reply:
1: inactive; 2: inactive; 3: inactive; 4: inactive

====

assay name: amyloid nucleation score (Sup35N fusion, yeast selection) (log enrichment); library NNK2; higher = more nucleation; inactive = no reads after selection
// bucketize amyloid nucleation score: low range: < -0.1; mid range: ≥ -0.1 and < 0.7; high range: ≥ 0.7

substance=SNPTSVQVRFLLHILLKSVL label="mid range"

In the following, a different substance is considered.
Task item: Categorize the following entry: MDSIHFV
Reply: mid range

====

assay name: amyloid nucleation score (Sup35N fusion, yeast selection) (log enrichment); library NNK2; higher = more nucleation; inactive = no reads after selection
experimental readout: amyloid nucleation score

substance=RWYSYYTQGDFRRFFLGSN result=inactive
substance=SIQLRVK result=inactive
substance=AWHIPLTCGLHVIFLGR result=inactive

====

assay name: amyloid nucleation score (Sup35N fusion, yeast selection) (log enrichment); library NNK3; higher = more nucleation; inactive = no reads after selection
experimental readout: amyloid nucleation score

Some solved cases for reference:
substance=SCYIEWMVFGSYPL result=inactive
substance=CGVEHYWRGLVG result=inactive
substance=YSKEWVFISIIQKLADGQCN result=-0.182
substance=FYRCLLNH result=inactive
substance=NLRSISF result=inactive

Task item: // lookup amyloid nucleation score for VSSFWFCLS
Reply: inactive

====

assay name: amyloid nucleation score (Sup35N fusion, yeast selection) (log enrichment); library NNK3; higher = more nucleation; inactive = no reads after selection
experimental readout: amyloid nucleation score

Some solved cases for reference:
substance=LRATHVSVKGSGRYSVSTFS experimental_readout="amyloid nucleation score" result=inactive
substance=CCRGRAFVGYLLQIIYVRGR experimental_readout="amyloid nucleation score" result=inactive
substance=NTWPTPSLWLVLNKTLRKTS experimental_readout="amyloid nucleation score" result=inactive
substance=DKHMIGLYNPRASIELL experimental_readout="amyloid nucleation score" result=inactive
substance=PWCVKIHRWVLYWSYKLSIS experimental_readout="amyloid nucleation score" result=inactive
substance=REDWRLFNCTTFSAPSSC experimental_readout="amyloid nucleation score" result=-0.217
substance=LERTNWCQYHL experimental_readout="amyloid nucleation score" result=inactive
substance=RWAELTEQTCS experimental_readout="amyloid nucleation score" result=inactive
substance=NALMKSVTFWCSAGISISRL experimental_readout="amyloid nucleation score" result=1.26
substance=KSCLGKRLISSFC experimental_readout="amyloid nucleation score" result=inactive

Dear colleague, could you send me amyloid nucleation score for each of the items below? Thanks.
1. AAEDRSWSHPATQFLLVVRQ
2. RGDVWLELKGLFAIFCYSEL
3. YLVYNYFMRDHWGLSVYLSR
4. RFMQWGIFS
5. VMDGFHKHIFFVVCTSRHNF
6. ICRLVLSNNF
7. YFSKVIVDLKNSCIL
8. CMDYYKMYISYYFDAGWVLS

Reply:
["inactive", 2.96, 0.641, "inactive", 0.271, "inactive", "inactive", "inactive"]

Dear colleague, could you send me amyloid nucleation score for each of the items below? Thanks.
1. YHTYKDSRTGFFMGQHSCMS
2. MWICVILGSQIWSRWETMNG
3. TFSPVGMISLYCYGT
4. LSVMNSVRTWYIIDFATFSC
5. QQSTIIFFVWAWMELNPTWK
6. YRKLVVSPLGILPKYRTPCC
7. IAMWDAMCFYWKIMSGSIMV

Reply:
["inactive", "inactive", -0.065, "inactive", "inactive", "inactive", "inactive"]
